- Species on record: Rattus norvegicus
- Protocol description: Open TG-GATES - Regimen: Daily Repeat
- Type: toxicity, organism-based, Sprague-Dawley
- Set-up: regimen Daily Repeat, gender Male, age 6 weeks
- Measurement context: in vivo, po, 0 mg/kg, 72 h, tissue Plasma, route gavage, dose level Control, time 3 day
# Lookup of reported K keyed by entry
Reply with just the number (in meq/L).

As a guide, the following entries are already answered.
Report K for COC1=CC(=O)C[C@@H](C)[C@]12Oc1c(Cl)c(OC)cc(OC)c1C2=O please.
4

Any idea what its K is? The molecule is COc1ccc2[nH]c([S+]([O-])Cc3ncc(C)c(OC)c3C)nc2c1 (stereo unspecified)
3.6

// returns reported K for input CC1=C(/C=C/C(C)=C/C=C/C(C)=C/CO)C(C)(C)CCC1
4.6

# input molecule: NNC(=O)c1ccncc1 ; wanted: its K
5.1

Which K value is on record for CCOC(=O)CCC(=O)O[C@H]1[C@H](O[C@@H]2[C@@H](C)[C@H](O[C@H]3C[C@@](C)(OC)[C@@H](O)[C@H](C)O3)[C@@H](C)C(=O)O[C@H](CC)[C@@](C)(O)[C@H](O)[C@@H](C)C(=O)[C@H](C)C[C@@]2(C)O)O[C@H](C)C[C@@H]1N(C)C [ERYTHROMYCIN ETHYLSUCCINATE] ?
4.3

---
Bench note: what K did CC(C)OC(=O)C(C)(C)Oc1ccc(C(=O)c2ccc(Cl)cc2)cc1 [FENOFIBRATE] show?
4.3

* * *

- Organism: Rattus norvegicus
- Protocol description: Open TG-GATES - Regimen: Single
- Type: toxicity, organism-based, Sprague-Dawley
- Design: regimen Single, gender Male, age 6 weeks
- Measurement context: in vivo, po, 10 mg/kg, 3 h, tissue Plasma, route gavage, dose level Low
Quick list: LDH per entry.
Record the value in IU/L, omitting the unit from your answer.

Examples with their reported LDH follow.
I would be grateful if you could share the reported LDH for CN(C)CCCN1c2ccccc2CCc2ccccc21 .
73

Consider the compound shown here: CN(C)CCCN1c2ccccc2CCc2ccc(Cl)cc21 What is its recorded LDH?
123

Would you kindly share the measured LDH for CC1=C(/C=C/C(C)=C/C=C/C(C)=C/CO)C(C)(C)CCC1 ?
253.6

Moving on to another compound below.
Which LDH is listed for CN(C)CCN(Cc1cccs1)c1ccccn1 ?
205.8

* * *

- Species: Rattus norvegicus
- Protocol description: Open TG-GATES - Regimen: Daily Repeat
- Format: toxicity, organism-based, Sprague-Dawley
- Parameters: regimen Daily Repeat, gender Male, age 6 weeks
- Measurement context: in vivo, po, 100 mg/kg, […], tissue Blood, route gavage, dose level Low, time 28 day
Measured attribute: Mono (%)
# number only, unit % dropped from output

Study these solved cases before continuing.
Can you share its Mono? I mean this compound: NC(N)=Nc1nc(CSCCC(N)=NS(N)(=O)=O)cs1
1.6

Please report the recorded Mono for COc1ccc2[nH]c([S+]([O-])Cc3ncc(C)c(OC)c3C)nc2c1 (stereo not given) .
2.2

Given the entry CCOC(=O)CCC(=O)O[C@H]1[C@H](O[C@@H]2[C@@H](C)[C@H](O[C@H]3C[C@@](C)(OC)[C@@H](O)[C@H](C)O3)[C@@H](C)C(=O)O[C@H](CC)[C@@](C)(O)[C@H](O)[C@@H](C)C(=O)[C@H](C)C[C@@]2(C)O)O[C@H](C)C[C@@H]1N(C)C [ERYTHROMYCIN ETHYLSUCCINATE] , report its measured Mono.
2

Look up Mono: COC1=CC(=O)C[C@@H](C)[C@]12Oc1c(Cl)c(OC)cc(OC)c1C2=O
2.2

New cases:
Find the recorded Mono belonging to CCOc1ccc(NC(=O)CC(C)O)cc1 (stereo not given) and report it.
2

* * *

- Species on record: Rattus norvegicus
- Protocol description: Open TG-GATES - Regimen: Daily Repeat
- Type: toxicity, organism-based, Sprague-Dawley
- Set-up: regimen Daily Repeat, gender Male, age 6 weeks
- Measurement context: in vivo, po, 0 mg/kg, […], route gavage, dose level Control, time 14 day
Measured attribute: TERMINAL_BW (g)
// note: answer is a bare numeric in g

Use the examples below as a reference point.
Given the entry CCOc1ccc(NC(=O)CC(C)O)cc1 (stereo not drawn) , report its measured TERMINAL_BW.
375

# lookup: TERMINAL_BW of CCOC(=O)CCC(=O)O[C@H]1[C@H](O[C@@H]2[C@@H](C)[C@H](O[C@H]3C[C@@](C)(OC)[C@@H](O)[C@H](C)O3)[C@@H](C)C(=O)O[C@H](CC)[C@@](C)(O)[C@H](O)[C@@H](C)C(=O)[C@H](C)C[C@@]2(C)O)O[C@H](C)C[C@@H]1N(C)C [ERYTHROMYCIN ETHYLSUCCINATE]
330.3

# next compound below
What value of measured TERMINAL_BW is listed for NC(N)=Nc1nc(CSCCC(N)=NS(N)(=O)=O)cs1 ?
314.4

* * *

Quick reference for Ht among some compounds
- Species: Rattus norvegicus
- Protocol description: Open TG-GATES - Regimen: Single
- Format: toxicity, organism-based, Sprague-Dawley
- Design: regimen Single, gender Male, age 6 weeks
- Measurement context: in vivo, po, 30 mg/kg, 6 h, tissue Blood, route gavage, dose level Middle
// units = %; emit number, no label

Please review the following examples before continuing.
Request the reported Ht associated with CN(C)CCN(Cc1cccs1)c1ccccn1
38.7

Could you share which Ht value was measured for CN(C)CCCN1c2ccccc2CCc2ccc(Cl)cc21 ?
43.9

Record request: Ht value, item CN(C)CCCN1c2ccccc2CCc2ccccc21
41.9

Now examine the next entry.
So what does the record say about Ht for CC1=C(/C=C/C(C)=C/C=C/C(C)=C/CO)C(C)(C)CCC1 ?
38.7

* * *

- Species: Rattus norvegicus
- Protocol description: Open TG-GATES - Regimen: Daily Repeat
- Type: toxicity, organism-based, Sprague-Dawley
- Set-up: regimen Daily Repeat, gender Male, age 6 weeks
- Measurement context: in vivo, po, 100 mg/kg, […], tissue Blood, route gavage, dose level Low, time 14 day
Measured attribute: APTT (s)
The reply should contain only the number, in s.

Observe how each entry below is paired with its result.
Quick one: APTT of COc1ccc2[nH]c([S+]([O-])Cc3ncc(C)c(OC)c3C)nc2c1 (stereo not given) ?
20.2

Would you mind telling me what APTT value was observed for NC(N)=Nc1nc(CSCCC(N)=NS(N)(=O)=O)cs1 ?
22.2

Any idea what its APTT is? The compound is CCOc1ccc(NC(=O)CC(C)O)cc1 (stereo not given)
19.2

Reported APTT for CCOC(=O)CCC(=O)O[C@H]1[C@H](O[C@@H]2[C@@H](C)[C@H](O[C@H]3C[C@@](C)(OC)[C@@H](O)[C@H](C)O3)[C@@H](C)C(=O)O[C@H](CC)[C@@](C)(O)[C@H](O)[C@@H](C)C(=O)[C@H](C)C[C@@]2(C)O)O[C@H](C)C[C@@H]1N(C)C [ERYTHROMYCIN ETHYLSUCCINATE] : what is it?
20.2

// moving on: another record for APTT
Using the record for COC1=CC(=O)C[C@@H](C)[C@]12Oc1c(Cl)c(OC)cc(OC)c1C2=O , report its APTT.
20.1

* * *

- Organism: Rattus norvegicus
- Protocol description: Open TG-GATES - Regimen: Single
- Format: toxicity, organism-based, Sprague-Dawley
- Parameters: regimen Single, gender Male, age 6 weeks
- Measurement context: in vivo, po, 300 mg/kg, 3 h, tissue Blood, route gavage, dose level Middle
Measured attribute: Hb (g/dL)
Reply numerically in g/dL, unit not repeated.

Given the compound CCOC(=O)CCC(=O)O[C@H]1[C@H](O[C@@H]2[C@@H](C)[C@H](O[C@H]3C[C@@](C)(OC)[C@@H](O)[C@H](C)O3)[C@@H](C)C(=O)O[C@H](CC)[C@@](C)(O)[C@H](O)[C@@H](C)C(=O)[C@H](C)C[C@@]2(C)O)O[C@H](C)C[C@@H]1N(C)C [ERYTHROMYCIN ETHYLSUCCINATE] , what is its reported Hb?
12.8

Requested field: Hb. Item: COC1=CC(=O)C[C@@H](C)[C@]12Oc1c(Cl)c(OC)cc(OC)c1C2=O
12.7

Hb for COc1ccc2[nH]c([S+]([O-])Cc3ncc(C)c(OC)c3C)nc2c1 (centres undefined) ?
12.4

Pending compound:
Which Hb is listed for NC(N)=Nc1nc(CSCCC(N)=NS(N)(=O)=O)cs1 ?
13.4

* * *

- Species: Rattus norvegicus
- Protocol description: Open TG-GATES - Regimen: Daily Repeat
- Format: toxicity, organism-based, Sprague-Dawley
- Parameters: regimen Daily Repeat, gender Male, age 6 weeks
- Measurement context: in vivo, po, 100 mg/kg, […], tissue Blood, route gavage, dose level Low, time 7 day
# RBC annotations
Answer in x10_4/ul, number only, no unit symbol.

Examples with their reported RBC follow.
Request the reported RBC associated with NC(N)=Nc1nc(CSCCC(N)=NS(N)(=O)=O)cs1
612

Bench note: what RBC did COc1ccc2[nH]c([S+]([O-])Cc3ncc(C)c(OC)c3C)nc2c1 (stereo not given) show?
652

---
Fill in: RBC of CCOC(=O)CCC(=O)O[C@H]1[C@H](O[C@@H]2[C@@H](C)[C@H](O[C@H]3C[C@@](C)(OC)[C@@H](O)[C@H](C)O3)[C@@H](C)C(=O)O[C@H](CC)[C@@](C)(O)[C@H](O)[C@@H](C)C(=O)[C@H](C)C[C@@]2(C)O)O[C@H](C)C[C@@H]1N(C)C [ERYTHROMYCIN ETHYLSUCCINATE] is ___
667.2

State the recorded RBC for this entry: CCOc1ccc(NC(=O)CC(C)O)cc1 (stereo not given)
655.4

Reported RBC for COC1=CC(=O)C[C@@H](C)[C@]12Oc1c(Cl)c(OC)cc(OC)c1C2=O : what is it?
641.4
